# PROTOCOL_DETAILS: soluble on expression in E. coli; label from the status in PepcDB or PDB records
EXPERIMENTAL_ENDPOINT: soluble on expression in E. coli

Below, each entry is followed by its recorded soluble on expression in E. coli result.
residue_sequence=MSLKDILVIGATGKQGNAVVKQLLEDGWYVSALTRNKNNRKLSDIGHPHLSIVEGDLSDNVSLQSAMKGKYGLYSIQPIVKDDVSEELRQGMKIIEIAEQENIQHIVYSTAGGVNRNRTGPHFEVLAKIENRLMESNINATVIKPSFFMDNFLRIAKVEDERITLPEFINPNIKFTMISSIDIAKIASYIFAHPQSFTHQSIEIGSDEVTLSEAATIFSEVTGKSTVIEGEFVSGVAEKQWLEEKGYEVDFELMAEINPTRLSLSDWLKVQNYNEGHHHHHH obs_value=soluble
residue_sequence=MSLQTIEEMDAYPAVDDSGDHLLDPNMIPTAATEVVMSGDGIERQFGDEEDTYQYEYTYEDDPQLEIGEEEVVVTDEAEYQEHWKDEEK obs_value="not soluble"
residue_sequence=SNASVRPSLWEFSSRVGMHVGASTPVPVPQAMEHVYAWYPRLNPMVQLSASRRLLAGSPWAVNVGIAVEKKGMEATTRVKDMKVAIVSDSPYAGNPDEEYPGLFTGDNNTEIRLGYLTIPVQAEYNMLKDRLKLRGGLYTSLLLESSFRVIIDGTMVYDDPKLGTAQMDLRELNFSDKIKGADFGVIIGADYYFARQ obs_value="not soluble"
residue_sequence=SEKLAASTEPQGPRPVLGRESVQVPDDQDFRSFRSECEAEVGWNLTYSRAGVSVWVQAVEMDRTLHKIKCRMECCDVPAETLYDVLHDIEYRKKWDSNVIETFDIARLTVNADVGYYSWRCPKPLKNRDVITLRSWLPMGADYIIMNYSVKHPKYPPRKDLVRAVSIQTGYLIQSTGPKSCVITYLAQVDPKGSLPKWVVNKSSQFLAPKAMKKMYKACLKYPEWKQKHLPHFKPWLHPEQSPLPSLALSELSVQHADSLENIDESAVAESREERMGGAGGEGSDDDTSLT obs_value=soluble

Enquiry: Recorded soluble on expression in E. coli for MFARIESGKIIAQKRKELGKTQKVLAEETNVNKSIISQIENGKFSGSLRVYEKYINGLGLELAVRPIKSKIPDFDNLHHLFPDE , please?
Return: not soluble

Enquiry: Recorded soluble on expression in E. coli for SLHELSLCQSAVEIIQRQAEQHDVKRVTAVWLEIGALSCVEESAVRFSFEIVCHGTVAQGCDLHIVYKPAQAWCWDCSQVVEVHQHDAQCPLCHGERLRVDTGDSLIVKSIEVE , please?
Return: soluble

Enquiry: Recorded soluble on expression in E. coli for MALHPAHPGAIIGHEAVLALLPRLTAQTLLFSGPEGVGRRTVARWYAWGLNRGFPPPSLGEHPDVLEVGPKARDLRGRAEVRLEEVAPLLEWCSSHPRERVKVAILDSAHLLTEAAANALLKLLEEPPSYARIVLIAPSRATLLPTLASRATEVAFAPVPEEALRALTQDPELLRYAAGAPGRLLRALQDPEGYRARMARAQRVLKAPPLERLALLRELLAEEEGVHALHAVLKRPEHLLALERAREALEGYVSPELVLARLALDLET , please?
Return: soluble
